# Target entity: HiBiT tagged CK1α (Homo sapiens, UniProt P48729+Q96SW2)
# Sequence (P48729 whole entry): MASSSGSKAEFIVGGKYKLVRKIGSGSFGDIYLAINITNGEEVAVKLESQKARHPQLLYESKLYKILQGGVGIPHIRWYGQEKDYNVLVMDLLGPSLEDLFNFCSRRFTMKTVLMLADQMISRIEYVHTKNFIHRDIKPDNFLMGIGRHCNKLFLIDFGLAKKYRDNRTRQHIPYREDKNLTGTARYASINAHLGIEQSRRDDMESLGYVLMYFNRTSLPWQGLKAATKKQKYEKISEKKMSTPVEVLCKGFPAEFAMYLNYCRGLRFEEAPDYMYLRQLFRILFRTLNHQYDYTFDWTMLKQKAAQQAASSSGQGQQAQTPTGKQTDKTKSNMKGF
# Sequence (Q96SW2 whole entry): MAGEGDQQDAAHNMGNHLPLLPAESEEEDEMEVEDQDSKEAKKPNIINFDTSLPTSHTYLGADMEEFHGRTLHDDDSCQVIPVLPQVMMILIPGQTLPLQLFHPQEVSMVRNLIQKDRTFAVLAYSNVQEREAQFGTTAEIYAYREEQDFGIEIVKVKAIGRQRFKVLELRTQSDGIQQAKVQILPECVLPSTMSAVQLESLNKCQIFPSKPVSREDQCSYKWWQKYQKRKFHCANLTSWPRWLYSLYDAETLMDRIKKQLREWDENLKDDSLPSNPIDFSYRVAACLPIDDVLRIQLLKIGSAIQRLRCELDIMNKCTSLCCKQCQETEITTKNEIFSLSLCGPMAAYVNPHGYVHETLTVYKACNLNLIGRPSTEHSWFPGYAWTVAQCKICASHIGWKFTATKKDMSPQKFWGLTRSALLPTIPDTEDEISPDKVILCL
# Sequence (Q16531 whole entry partner): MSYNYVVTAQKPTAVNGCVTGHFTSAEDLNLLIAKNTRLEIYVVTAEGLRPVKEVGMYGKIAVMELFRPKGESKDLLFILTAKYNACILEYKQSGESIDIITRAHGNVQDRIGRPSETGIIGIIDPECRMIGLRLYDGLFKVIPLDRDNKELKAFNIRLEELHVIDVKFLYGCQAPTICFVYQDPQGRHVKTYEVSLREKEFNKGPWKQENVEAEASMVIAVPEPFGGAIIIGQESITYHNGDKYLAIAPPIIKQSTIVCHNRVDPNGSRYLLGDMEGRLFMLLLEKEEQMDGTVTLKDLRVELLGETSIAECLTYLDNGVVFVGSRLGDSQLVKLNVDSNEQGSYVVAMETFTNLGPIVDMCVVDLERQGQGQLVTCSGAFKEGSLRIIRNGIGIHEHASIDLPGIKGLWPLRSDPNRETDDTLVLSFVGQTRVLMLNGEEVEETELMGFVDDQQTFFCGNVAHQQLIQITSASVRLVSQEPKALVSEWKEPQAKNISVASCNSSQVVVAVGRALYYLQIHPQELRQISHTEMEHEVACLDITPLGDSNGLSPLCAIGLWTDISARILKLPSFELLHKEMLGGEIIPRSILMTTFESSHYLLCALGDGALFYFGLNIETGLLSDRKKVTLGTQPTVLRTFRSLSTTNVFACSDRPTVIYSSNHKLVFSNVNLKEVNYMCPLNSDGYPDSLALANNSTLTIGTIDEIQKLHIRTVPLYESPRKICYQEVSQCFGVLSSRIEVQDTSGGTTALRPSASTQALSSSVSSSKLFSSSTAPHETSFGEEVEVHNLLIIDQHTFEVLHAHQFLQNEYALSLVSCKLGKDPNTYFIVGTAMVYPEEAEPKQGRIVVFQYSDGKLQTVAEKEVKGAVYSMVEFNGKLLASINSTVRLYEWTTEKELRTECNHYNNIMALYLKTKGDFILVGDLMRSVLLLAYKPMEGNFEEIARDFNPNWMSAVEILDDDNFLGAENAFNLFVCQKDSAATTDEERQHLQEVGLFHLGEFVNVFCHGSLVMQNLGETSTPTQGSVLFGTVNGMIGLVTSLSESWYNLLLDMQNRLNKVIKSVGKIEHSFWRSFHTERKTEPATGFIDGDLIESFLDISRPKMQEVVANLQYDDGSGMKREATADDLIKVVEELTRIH
# Test details: CK1α degradation assay (HiBiT assay)
# Type: cell-based
# Stated conditions: HT-1080 cells, 20 hours; concentration at 50% CK1α degradation
Value kind: DC50 (nM)
I only need the number, in nM, no unit after it.

In the examples that follow, each entry is paired with its recorded DC50.
O=C1CCC(N2Cc3cc(C(=O)NC(c4cccc(F)c4Cl)C4CC4)ccc3C2=O)C(=O)N1 (stereo not shown)	49.6
O=C1CCC(N2Cc3cc(C(=O)N[C@@H](c4cccc(F)c4)C4CC4)ccc3C2=O)C(=O)N1 (stereo in doubt)	1580
O=C1CCC(N2Cc3cc(C(=O)NC(c4ncccc4Cl)C4CC4)ccc3C2=O)C(=O)N1 (stereo not shown)	303

Item: O=C1CCC(N2Cc3cc(C(=O)N[C@H](c4c(F)cccc4F)C4CC4)ccc3C2=O)C(=O)N1 (stereo in doubt) Test system: HiBiT tagged CK1α (Homo sapiens, UniProt P48729+Q96SW2) Read-out: DC50 Value: ?
123

Item: O=C1CCC(N2Cc3cc(C(=O)NC(c4ccc(F)cc4Cl)C4CCC4)ccc3C2=O)C(=O)N1 (single isomer, unassigned) [Compound 53] Test system: HiBiT tagged CK1α (Homo sapiens, UniProt P48729+Q96SW2) Read-out: DC50 Value: ?
118

Item: O=C1CC[C@H](N2Cc3cc(C(=O)N[C@H](c4ccc(Cl)cc4F)C4CCC4)ccc3C2=O)C(=O)N1 (racemic) [Compound 55] Test system: HiBiT tagged CK1α (Homo sapiens, UniProt P48729+Q96SW2) Read-out: DC50 Value: ?
948

Item: O=C1CCC(N2Cc3cc(C(=O)N[C@@H](c4cccc(Cl)c4)C4CC4)ccc3C2=O)C(=O)N1 (stereo in doubt) Test system: HiBiT tagged CK1α (Homo sapiens, UniProt P48729+Q96SW2) Read-out: DC50 Value: ?
345

* * *

# Target entity: HiBiT tagged CK1α (Homo sapiens, UniProt P48729+Q96SW2)
# Test details: CK1α degradation assay (HiBiT assay)
# Assay type: cell-based
# Stated conditions: HT-1080 cells, 20 hours; concentration at 50% CK1α degradation
Value kind: DC50 (nM)
I only need the number, in nM, no unit after it.

In the examples that follow, each entry is paired with its recorded DC50.
O=C1CCC(N2Cc3cc(C(=O)N[C@H](c4c(F)cccc4Cl)C4CCC4)ccc3C2=O)C(=O)N1 (stereo in doubt) [Compound 69]	62.7
O=C1CCC(N2Cc3cc(C(=O)N[C@H](c4ncc(F)cc4Cl)C4CCC4)ccc3C2=O)C(=O)N1 (stereo in doubt) [Compound 81]	153

// DC50 lookup, key: O=C1CC[C@H](N2Cc3cc(C(=O)N[C@H](c4ccc(F)cc4)C4CCC4)ccc3C2=O)C(=O)N1 (single isomer, unassigned) [Compound 9]
116

* * *

# Target entity: HiBiT tagged CK1α (Homo sapiens, UniProt P48729+Q96SW2)
# Test details: CK1α degradation assay (HiBiT assay)
# Type: cell-based
# Stated conditions: HT-1080, HT-1080 cells, 20 hours; maximum CK1α degradation
Value kind: Dmax (%)
I only need the number, in %, no unit after it.

O=C1CCC(N2Cc3cc(C(=O)N[C@H](c4ccc(F)cc4)C4CC(F)(F)C4)ccc3C2=O)C(=O)N1 (single isomer, unassigned)	60.9
O=C1CCC(N2Cc3cc(C(=O)N[C@H](c4ccc(F)cc4)C4CCCC4)ccc3C2=O)C(=O)N1 (mixture of isomers)	49.5

Now for the compound whose Dmax we want.
// Dmax lookup, key: O=C1CCC(N2Cc3cc(C(=O)N[C@@H](c4ccc(F)cc4)C4COC4)ccc3C2=O)C(=O)N1 (stereo in doubt)
32.2

Value source: patent US12673936B2
